Molecular target: HLA-A*02:01
Test: IEDB peptide-MHC binding, purified MHC/competitive/fluorescence; filed as Kd, often an IC50 or EC50 that approximates it; bounds were set here for any values at or beyond the usual limits of such assays
Details: source organism: Human immunodeficiency virus 1
readoutLabel: pKd
Just the number, please; pKd means minus log10 of the concentration in mol/L.

Some sequences with known pKd results, for comparison:
INSERT INTO results (itemsequence, readoutlabel, testvalue) VALUES
  ('DLADQLIHL', 'pKd', 6.75),
  ('ELADQLIHL', 'pKd', 5.94);

Alright, here's another sequence for you.
Query: What value of pKd has been recorded for this entry: `NLGQHIYET`
Reply: 5.05

---

Target: HLA-A*02:11
Assay: IEDB peptide-MHC binding, purified MHC/competitive/fluorescence; filed as Kd, often an IC50 or EC50 that approximates it; bounds were set here for any values at or beyond the usual limits of such assays
Conditions: source organism: Escherichia coli 536
readoutLabel: Kd

Query: What value of Kd has been recorded for this entry: `RVGIYFGMK`
Reply: ≥ 20 µM

---

Listed next: entries and their corresponding pKd.
Biological target: HLA-B*18:01
Experiment: IEDB peptide-MHC binding, purified MHC/competitive/radioactivity; filed as Kd, often an IC50 or EC50 that approximates it; bounds were set here for any values at or beyond the usual limits of such assays
Details: source organism: Mammarenavirus guanaritoense
pKd: −log10 of the molar value.

INSERT INTO assay_data (itemsequence, readoutlabel, testvalue) VALUES
  ('RDLVISDSS', 'pKd', '≤ 4.11'),
  ('ADSLDFTQV', 'pKd', '≤ 4.18');

Alright, here's another sequence for you.
Query: What value of pKd has been recorded for this entry: `PEFDWILGW`
Reply: 5.29

---

Listed next: entries and their corresponding pKd.
Target: HLA-B*44:02
Assay: IEDB peptide-MHC binding, purified MHC/competitive/radioactivity; filed as Kd, often an IC50 or EC50 that approximates it; bounds were set here for any values at or beyond the usual limits of such assays
Details: source organism: Dengue virus 3 Martinique/1243/1999
Just the number, please; pKd means minus log10 of the concentration in mol/L.

INSERT INTO measurements (itemsequence, testvalue) VALUES
  ('KEISNMLSI', 7.55);

Alright, here's another sequence for you.
Query: What value of pKd has been recorded for this entry: `AEMEEALKG`
Reply: 7.53

---

Molecular target: HLA-A*68:02
Assay: IEDB peptide-MHC binding, purified MHC/direct/fluorescence; filed as Kd, often an IC50 or EC50 that approximates it; bounds were set here for any values at or beyond the usual limits of such assays
Conditions: source organism: Rickettsia sibirica 246
readoutLabel: Kd

Query: What value of Kd has been recorded for this entry: `SVANIDRIK`
Reply: ≥ 20 µM

---

Target: HLA-B*15:01
Test: IEDB peptide-MHC binding, purified MHC/competitive/fluorescence; filed as Kd, often an IC50 or EC50 that approximates it; bounds were set here for any values at or beyond the usual limits of such assays
Details: source organism: Escherichia coli
pKd: −log10 of the molar value.
Listed next: entries and their corresponding pKd.

INSERT INTO results (itemsequence, readoutlabel, testvalue) VALUES
  ('MFWKLPPWL', 'pKd', '≤ 4.70');

Query: What value of pKd has been recorded for this entry: `RHSDTAKAF`
Reply: ≤ 4.70

---

Biological target: HLA-A*11:01
Assay: IEDB peptide-MHC binding, purified MHC/direct/fluorescence; filed as Kd, often an IC50 or EC50 that approximates it; bounds were set here for any values at or beyond the usual limits of such assays
Conditions: source organism: Mammarenavirus lassaense
readoutLabel: Kd

Query: What value of Kd has been recorded for this entry: `KHDEEFCDM`
Reply: ≥ 20 µM

---

Molecular target: HLA-A*68:01
Experiment: IEDB peptide-MHC binding, purified MHC/competitive/radioactivity; filed as Kd, often an IC50 or EC50 that approximates it; bounds were set here for any values at or beyond the usual limits of such assays
Details: source organism: Lymphocytic choriomeningitis virus (strain Armstrong)
readoutLabel: pKd
Just the number, please; pKd means minus log10 of the concentration in mol/L.

Query: What value of pKd has been recorded for this entry: `FTNDSIISH`
Reply: 7.09

---

Listed next: entries and their corresponding pKd.
Biological target: HLA-A*01:01
Experiment: IEDB peptide-MHC binding, purified MHC/direct/fluorescence; filed as Kd, often an IC50 or EC50 that approximates it; bounds were set here for any values at or beyond the usual limits of such assays
Details: source organism: Vibrio parahaemolyticus
Just the number, please; pKd means minus log10 of the concentration in mol/L.

INSERT INTO results (itemsequence, testvalue) VALUES
  ('MSSAMSMMH', 5.16);

Alright, here's another sequence for you.
Query: What value of pKd has been recorded for this entry: `NSSYWRQGY`
Reply: 7.03

---

Target: HLA-A*01:01
Test: IEDB peptide-MHC binding, purified MHC/competitive/radioactivity; filed as Kd, often an IC50 or EC50 that approximates it; bounds were set here for any values at or beyond the usual limits of such assays
Conditions: source organism: Dengue virus 2 Jamaica/1409/1983
Listed next: entries and their corresponding pKd.
Just the number, please; pKd means minus log10 of the concentration in mol/L.

Query: Return pKd measured with HLA-A*01:01 given this sequence: `NVHTWTEQY`
Reply: 5.22

Query: Return pKd measured with HLA-A*01:01 given this sequence: `ITEMGRLPTF`
Reply: 4.76

---

Molecular target: HLA-B*58:01
Test: IEDB peptide-MHC binding, purified MHC/direct/fluorescence; filed as Kd, often an IC50 or EC50 that approximates it; bounds were set here for any values at or beyond the usual limits of such assays
Details: source organism: Cryptosporidium parvum
readoutLabel: Kd

Query: What value of Kd has been recorded for this entry: `KHNSAESAK`
Reply: ≥ 20 µM

---

Molecular target: HLA-B*07:02
Experiment: IEDB peptide-MHC binding, purified MHC/direct/fluorescence; filed as Kd, often an IC50 or EC50 that approximates it; bounds were set here for any values at or beyond the usual limits of such assays
Conditions: source organism: Vibrio cholerae
readoutLabel: Kd

Query: Return Kd measured with HLA-B*07:02 given this sequence: `AENKKFKLH`
Reply: ≥ 20 µM

---

Molecular target: HLA-A*68:02
Assay: IEDB peptide-MHC binding, purified MHC/competitive/fluorescence; filed as Kd, often an IC50 or EC50 that approximates it; bounds were set here for any values at or beyond the usual limits of such assays
Settings: source organism: Escherichia coli 536
pKd: −log10 of the molar value.
readoutLabel: pKd

Query: What value of pKd has been recorded for this entry: `RVGIYFGMK`
Reply: ≤ 4.70

---

Target: HLA-B*15:42
Test: IEDB peptide-MHC binding, purified MHC/competitive/fluorescence; filed as Kd, often an IC50 or EC50 that approximates it; bounds were set here for any values at or beyond the usual limits of such assays
Conditions: source organism: Mammarenavirus lassaense
readoutLabel: Kd

Query: What value of Kd has been recorded for this entry: `LIDGRTSFY`
Reply: ≥ 5 µM

---

Biological target: HLA-A*33:01
Assay: IEDB peptide-MHC binding, purified MHC/competitive/radioactivity; filed as Kd, often an IC50 or EC50 that approximates it; bounds were set here for any values at or beyond the usual limits of such assays
Settings: source organism: Dengue virus 4 Philippines/H241/1956
readoutLabel: Kd (nM)
Provide only the numeric value, understood in nM.

Query: What value of Kd has been recorded for this entry: `TFKVPHAKR`
Reply: 15.8

---

Target: HLA-A*24:03
Test: IEDB peptide-MHC binding, purified MHC/direct/fluorescence; filed as Kd, often an IC50 or EC50 that approximates it; bounds were set here for any values at or beyond the usual limits of such assays
Details: source organism: Rickettsia prowazekii
readoutLabel: Kd

Query: Return Kd measured with HLA-A*24:03 given this sequence: `VVNYDNSTK`
Reply: ≥ 20 µM

---

Target: HLA-C*14:02
Test: IEDB peptide-MHC binding, purified MHC/competitive/fluorescence; filed as Kd, often an IC50 or EC50 that approximates it; bounds were set here for any values at or beyond the usual limits of such assays
Details: source organism: Clostridium novyi NT
readoutLabel: Kd (µM)
Provide only the numeric value, understood in µM.

Query: What value of Kd has been recorded for this entry: `ASMDNTSPM`
Reply: 0.0364

---

Target: HLA-B*07:02
Experiment: IEDB peptide-MHC binding, purified MHC/competitive/radioactivity; filed as Kd, often an IC50 or EC50 that approximates it; bounds were set here for any values at or beyond the usual limits of such assays
Conditions: source organism: Mammarenavirus juninense
readoutLabel: pKd
Just the number, please; pKd means minus log10 of the concentration in mol/L.

Query: What value of pKd has been recorded for this entry: `TPENFSSLI`
Reply: 5.08

---

Molecular target: HLA-B*40:01
Assay: IEDB peptide-MHC binding, purified MHC/direct/fluorescence; filed as Kd, often an IC50 or EC50 that approximates it; bounds were set here for any values at or beyond the usual limits of such assays
Settings: source organism: Camelpox virus M-96
readoutLabel: Kd

Query: What value of Kd has been recorded for this entry: `VMCIQMKYV`
Reply: ≥ 20 µM
